NADPH Oxidation, GR values, listed per item
# EXPERIMENTAL_SYSTEM: glutathione reductase (GR) (Homo sapiens, UniProt P00390)
# Sequence (P00390 44-522): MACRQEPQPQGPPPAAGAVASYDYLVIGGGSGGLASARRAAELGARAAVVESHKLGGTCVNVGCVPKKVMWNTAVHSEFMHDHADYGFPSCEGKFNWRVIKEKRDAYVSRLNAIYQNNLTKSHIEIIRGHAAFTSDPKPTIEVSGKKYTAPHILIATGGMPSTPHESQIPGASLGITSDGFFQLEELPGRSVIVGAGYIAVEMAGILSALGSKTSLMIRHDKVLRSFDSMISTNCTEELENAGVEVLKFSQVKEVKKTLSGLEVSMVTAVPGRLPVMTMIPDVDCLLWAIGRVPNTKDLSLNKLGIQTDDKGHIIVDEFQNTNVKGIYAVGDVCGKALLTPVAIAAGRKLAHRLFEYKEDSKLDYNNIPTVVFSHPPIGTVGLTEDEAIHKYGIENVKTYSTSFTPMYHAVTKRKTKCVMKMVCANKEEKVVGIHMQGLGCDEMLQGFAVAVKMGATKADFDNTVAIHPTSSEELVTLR
# TEST_METHOD_NOTES: NADPH oxidation, glutathione reductase (GR) alone
# Format: biochemical
# CONDITIONS_USED: Disulfide 0.5 mM; n = 6

| COMPOUND | NADPH Oxidation, GR |
| --- | --- |
| NC(CCSSCCS(=O)(=O)O)C(=O)O (stereo not drawn) [BNP7768] | 0.16 ± 0.96 nmol/min/mL |
| O=S(=O)([O-])CCSSCCS(=O)(=O)[O-].[Na+].[Na+] [Tavocept™] | 0.0 ± 0.01 nmol/min/mL |
| N[C@@H](CSSCCS(=O)(=O)O)C(=O)NCC(=O)O [BNP7776] | 0.0 ± 0.7 nmol/min/mL |
| NC(CSSCCS(=O)(=O)O)C(=O)O (stereo not drawn) [BNP7766] | 0.0 ± 0.01 nmol/min/mL |
| NC(CCC(=O)NC(CSSCCS(=O)(=O)O)C(=O)O)C(=O)O (stereo not drawn) [BNP7774] | 0.04 ± 0.12 nmol/min/mL |
| N[C@@H](CCC(=O)N[C@@H](CSSCCS(=O)(=O)O)C(=O)NCC(=O)O)C(=O)O [BNP7772] | 8.0 ± 0.6 nmol/min/mL |

====

# EXPERIMENTAL_SYSTEM: Thioredoxin Reductase (Bos taurus)
# Sequence (O62768 whole entry): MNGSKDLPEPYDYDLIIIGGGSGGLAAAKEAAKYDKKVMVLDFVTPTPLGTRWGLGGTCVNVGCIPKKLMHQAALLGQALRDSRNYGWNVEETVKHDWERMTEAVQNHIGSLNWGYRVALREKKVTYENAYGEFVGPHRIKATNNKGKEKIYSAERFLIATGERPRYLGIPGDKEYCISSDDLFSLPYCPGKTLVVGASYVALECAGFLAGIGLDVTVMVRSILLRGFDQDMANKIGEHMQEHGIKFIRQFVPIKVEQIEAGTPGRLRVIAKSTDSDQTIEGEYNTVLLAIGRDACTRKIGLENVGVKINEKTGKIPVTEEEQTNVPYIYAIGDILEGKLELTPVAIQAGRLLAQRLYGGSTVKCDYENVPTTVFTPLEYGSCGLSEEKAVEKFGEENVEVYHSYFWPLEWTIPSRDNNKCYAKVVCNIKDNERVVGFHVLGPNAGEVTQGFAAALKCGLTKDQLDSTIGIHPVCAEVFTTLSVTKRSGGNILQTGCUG
# TEST_METHOD_NOTES: NADPH oxidation at 340 nm, thioredoxin reductase only
# Assay type: biochemical, bovine
# CONDITIONS_USED: Disulfide 0.5 mM; minimum of triplicate assays
In this section, each of the compounds is paired with its reported NADPH Oxidation, Thioredoxin Reductase only.
ASSAY_READOUT: NADPH Oxidation, Thioredoxin Reductase only (nmol/min/mL)

| COMPOUND | EXPERIMENTAL_SYSTEM | READOUT_UNITS | DATA_VALUE |
| --- | --- | --- | --- |
| NC(CCC(=O)NC(CSSCCS(=O)(=O)O)C(=O)O)C(=O)O (stereo not drawn) [BNP7774] | Thioredoxin Reductase (Bos taurus) | nmol/min/mL | 0.3 |
| NC(CSSCCS(=O)(=O)O)C(=O)O (stereo not drawn) [BNP7766] | Thioredoxin Reductase (Bos taurus) | nmol/min/mL | 0.2 |
| N[C@@H](CCC(=O)N[C@@H](CSSCCS(=O)(=O)O)C(=O)NCC(=O)O)C(=O)O [BNP7772] | Thioredoxin Reductase (Bos taurus) | nmol/min/mL | 0.3 |
| NC(CCSSCCS(=O)(=O)O)C(=O)O (stereo not drawn) [BNP7768] | Thioredoxin Reductase (Bos taurus) | nmol/min/mL | 0.0 |
| O=S(=O)([O-])CCSSCCS(=O)(=O)[O-].[Na+].[Na+] [Tavocept™] | Thioredoxin Reductase (Bos taurus) | nmol/min/mL | 0.3 |
